test system: 628569-122-R-J1-PDC complex spheroid viability; experiment: Anticancer human tumor 628569-122-R-J1-PDC patient-derived head and neck squamous carcinoma cell line growth inhibition [CLK]; details: second compound 3.16 µM; first compound 0.03 µM; active means viability on the fitted dose curve at most 10% of control; inactive means the rest;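 further: spheroids exposed to agents for seven days before readout; 100% = DMSO vehicle control viability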
Entry note: the call must match one of yes (1) for active, no (0) for inactive

Record request — test call for C=CC(=O)Nc1cc(Nc2nccc(-c3cn(C)c4ccccc34)n2)c(OC)cc1N(C)CCN(C)C + CN1CCN(c2cc(C(=O)Nc3cc4cc(-c5cnn(C)c5)ccc4cn3)ccn2)CC1 yes (1)

Item: C=CC(=O)Nc1cc(Nc2nccc(-c3cn(C)c4ccccc34)n2)c(OC)cc1N(C)CCN(C)C + CNC(=O)c1ccc(Nc2nc(OC3CCCC3)c3c(-c4ccc5nc(C)oc5c4)c[nH]c3n2)c(OC)c1 no (0)

Proceed to NC(=O)C(=Cn1cnc(-c2cc(C(F)(F)F)cc(C(F)(F)F)c2)n1)c1cncnc1 + CNC(=O)c1ccc(Nc2nc(OC3CCCC3)c3c(-c4ccc5nc(C)oc5c4)c[nH]c3n2)c(OC)c1 no (0)

Value source: PubChem BioAssay AID2060611
